Molecular target: T1, RHPN1, Q8TCX5
T1 sequence (Q8TCX5 508-602, limits assumed, looked up): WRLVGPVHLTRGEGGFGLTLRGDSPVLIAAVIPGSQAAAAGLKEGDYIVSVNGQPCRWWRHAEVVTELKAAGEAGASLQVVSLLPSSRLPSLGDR
Experiment: holdup assay
Set-up: key: below the threshold = too weak to quantify, mostly under pKd 3.1 to 4
Details: plain residues with an end cap or a label only (N-terminal biotin on a linker: ttds)
measure: pKd

Examples from the recorded data:
binder	pKd
GARVSKETPL [MAPK12, P53778]	below the threshold
GRLLGLETNV [ARHGEF26, Q96DR7]	4.48
PSRDRKETSI [RALBP1, Q15311]	3.92
SRSRRRETAL [HPV33-E6, P06427]	3.81
PPRQRSETQV [HPV82-E6, Q9IR59]	3.72

So what's the measured pKd for this one? SSIDLWETAL [SLC15A5, A6NIM6]
5

So what's the measured pKd for this one? PFRSRSPSEV [GPR6, P46095]
below the threshold

So what's the measured pKd for this one? FVETQHQTQV [FAT3, Q8TDW7]
4.32

So what's the measured pKd for this one? KLVIKTETTV [RASSF6, Q6ZTQ3]
3.93

So what's the measured pKd for this one? SHSSKGETAV [FZD7, O75084]
below the threshold

So what's the measured pKd for this one? DLDEEEDTHL [PODXL, O00592]
4.1

So what's the measured pKd for this one? KQVVPFSSSV [GDA, Q9Y2T3]
below the threshold

So what's the measured pKd for this one? QRPYRRESEI [KCNJ12, Q14500]
3.5

So what's the measured pKd for this one? SGGKRKETLV [NET1, Q7Z628]
3.65

So what's the measured pKd for this one? NPDALPETLV [ARHGAP6, O43182]
4.61
